# Tested on: Mus musculus
# ASSAY INFO: In vivo activation of iNKT cells in C57BL/6 mouse assessed as stimulation of IL4 production in serum at 5 ug, ip after 4 hrs by ELISA
# Assay type: functional, organism-based
Activity calls are given as the source filed them. The calls are words filed in the database; no cut-off is given here.
Outcomes: active, inactive

>  <COMPOUND SMILES>
CCCCCCCCCCCCCCCCCCCCCCCCCC(=O)N[C@@H](CO[C@H]1O[C@H](COC(=O)Nc2ccc(Cl)cc2)[C@H](O)[C@H](O)[C@H]1O)[C@H](O)[C@H](O)CCCCCCCCCCCCCC

>  <DISCRETE LABEL>
active

$$$$
>  <COMPOUND SMILES>
CCCCCCCCCCCCCCCCCCCCCCCCCC(=O)N[C@@H](CO[C@H]1O[C@H](C(=O)NCc2ccc(Cl)c(Cl)c2)[C@H](O)[C@H](O)[C@H]1O)[C@H](O)[C@H](O)CCCCCCCCCCCCCC

>  <DISCRETE LABEL>
inactive

$$$$
>  <COMPOUND SMILES>
CCCCCCCCCCCCCCCCCCCCCCCCCC(=O)N[C@@H](CO[C@H]1O[C@H](COC(=O)Nc2cccc3ccccc23)[C@H](O)[C@H](O)[C@H]1O)[C@H](O)[C@H](O)CCCCCCCCCCCCCC

>  <DISCRETE LABEL>
active

$$$$
>  <COMPOUND SMILES>
CCCCCCCCCCCCCCCCCCCCCCCCCC(=O)N[C@@H](CO[C@H]1O[C@H](C(=O)Nc2ccc(Cl)c(Cl)c2)[C@H](O)[C@H](O)[C@H]1O)[C@H](O)[C@H](O)CCCCCCCCCCCCCC

>  <DISCRETE LABEL>
inactive

$$$$
>  <COMPOUND SMILES>
CCCCCCCCCCCCCCCCCCCCCCCCCC(=O)N[C@@H](CO[C@H]1O[C@H](COC(=O)Nc2ccncc2)[C@H](O)[C@H](O)[C@H]1O)[C@H](O)[C@H](O)CCCCCCCCCCCCCC

>  <DISCRETE LABEL>
active

$$$$
